test system: UO-31; test: NCI tumour cell line growth inhibition, 48 h
Active and inactive are the calls of the source. Rule as the data show it: active = GI50 up to about 1.1 µM and inactive = higher.
# GI50 annotations

Example molecules with recorded GI50:
INSERT INTO results (molecule, value) VALUES
  ('NS(=O)(=O)c1nnc(NS(=O)(=O)C(F)(F)F)s1', '> 100 µM (inactive)'),
  ('CCOC(=O)/C(=N/Nc1ccc(Cl)cc1)N1C(=S)N(C)N=C(C)C=C1S', '> 100 µM (inactive)'),
  ('COC(=O)c1c(C)ccc2c(O)c3c(cc12)C(=O)c1c2c(cc(O)c1C3=O)C1(C)OC(C)(O2)C(O)C(N(C)C)C1O (centres undefined)', '1.87 µM (inactive)'),
  ('COc1ccc(CN2C(=O)C(Cc3cc(OC)c(OC)c(C)c3OC)N(C(=O)OC(C)C)C(=O)/C2=C/c2cc(OC)c(OC)c(C)c2OC)cc1 (centres undefined)', '16.6 µM (inactive)'),
  ('C/C(=N\N=C1/C(=O)OC(c2ccccc2)=C1C(=O)c1ccccc1)c1ccc([N+](=O)[O-])cc1', '44.7 µM (inactive)'),
  ('c1ccc(C[n+]2ccc3c(c2)CCCC3)cc1', '> 100 µM (inactive)'),
  ('CCOC(=O)c1cc(C2CCN(CC(C)CC)C2=S)c(-c2cc(C)no2)[nH]1 (centres undefined)', '17.3 µM (inactive)'),
  ('O=C(O)C1CCCCC1c1c2ccc(=O)cc-2oc2cc(O)ccc12 (centres undefined)', '61 µM (inactive)');

Here is the next item to consider.
Asked: Please look up its GI50: Cc1cc(N)ccc1/N=N\c1ccc(S(=O)(=O)CCOS(=O)(=O)O)cc1
Given back: 2 µM (inactive)
